B1: mRNA-splicing (parent)
chain: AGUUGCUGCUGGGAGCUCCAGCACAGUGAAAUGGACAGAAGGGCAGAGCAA

variants of: B1; assay: exon inclusion enrichment index; higher = more inclusion; WT1 exon 5 minigene, HEK293
Can you tell me exon inclusion enrichment index for the items I'm about to list?
Answer with the value's number alone.

IN: Item G5C C6G U7C U10C C22U has what recorded exon inclusion enrichment index?
OUT: 3.4

IN: Item G5C C6U G8C C9U U10C G21U C22G has what recorded exon inclusion enrichment index?
OUT: 1.74

IN: Item C6A U7C C9A U10C A45C G46U has what recorded exon inclusion enrichment index?
OUT: 1.54

IN: Item G5A U7C G8A U10C A30U A31U has what recorded exon inclusion enrichment index?
OUT: 1.86

IN: Item G5C C6U G8C C9U U10C G13U A14C has what recorded exon inclusion enrichment index?
OUT: 0.936

IN: Item G5A C6U U7A G8U C9A G11U G12U has what recorded exon inclusion enrichment index?
OUT: 0.00843

IN: Item G5C C6G U7C U10C A37U has what recorded exon inclusion enrichment index?
OUT: 3.22

IN: Item C6A U7C C9A U10C G11A G12A has what recorded exon inclusion enrichment index?
OUT: 2.21

IN: Item G5A C6G U7G C9A A47C G48U has what recorded exon inclusion enrichment index?
OUT: 0.00274

IN: Item G5C C6U G8C C9U U10C A37G has what recorded exon inclusion enrichment index?
OUT: 2.83

IN: Item G12A G13C has what recorded exon inclusion enrichment index?
OUT: 1.2

IN: Item G5C C6G has what recorded exon inclusion enrichment index?
OUT: 0.0268

IN: Item G5C C6U G8C C9U U10C A45U G46U has what recorded exon inclusion enrichment index?
OUT: 0.648

IN: Item G5C C6G U7C U10C A45C G46C has what recorded exon inclusion enrichment index?
OUT: 2.31

IN: Item G5C C6U G8C C9U U10C G46C A47C has what recorded exon inclusion enrichment index?
OUT: 1.76

IN: Item C6A U7C C9A U10C U17A C18A has what recorded exon inclusion enrichment index?
OUT: 3.1

IN: Item C6A U7C C9A U10C A20C G21A has what recorded exon inclusion enrichment index?
OUT: 2.38

IN: Item G2U U3C C6A U7C C9A U10C has what recorded exon inclusion enrichment index?
OUT: 4.67

IN: Item G5U G8U C9U G38A A39C has what recorded exon inclusion enrichment index?
OUT: 0.0724

IN: Item G5A C6G U7G C9A A45G G46C has what recorded exon inclusion enrichment index?
OUT: 0.00144

IN: Item G5A C6U U7A G8U C9A C18U C19U has what recorded exon inclusion enrichment index?
OUT: 0.00085

IN: Item G8U C9A has what recorded exon inclusion enrichment index?
OUT: 0.386

IN: Item U3C U4G C6A U7A C9A U10A has what recorded exon inclusion enrichment index?
OUT: 0.667

IN: Item G5A U7C G8A U10C G13U has what recorded exon inclusion enrichment index?
OUT: 0.0615

IN: Item C6A U7A C9A U10A A29G has what recorded exon inclusion enrichment index?
OUT: 1.06

IN: Item G5U G8U C9U A35G C36U has what recorded exon inclusion enrichment index?
OUT: 0.0033

IN: Item C6A U7C C9A U10C G34C A35G has what recorded exon inclusion enrichment index?
OUT: 2.67

IN: Item C6A U7A C9A U10A C19A A20U has what recorded exon inclusion enrichment index?
OUT: 0.195

IN: Item C6A U7C C9A U10C G21A has what recorded exon inclusion enrichment index?
OUT: 3.08

IN: Item C6A U7A C9A U10A A47G G48A has what recorded exon inclusion enrichment index?
OUT: 0.364

IN: Item G5U C6G U7A G8U C9A has what recorded exon inclusion enrichment index?
OUT: 0.241
